# target.system: HGFR (Homo sapiens)
# Construct: purchased Upstate 14-526
# Sequence (P08581 974-1390 limits assumed): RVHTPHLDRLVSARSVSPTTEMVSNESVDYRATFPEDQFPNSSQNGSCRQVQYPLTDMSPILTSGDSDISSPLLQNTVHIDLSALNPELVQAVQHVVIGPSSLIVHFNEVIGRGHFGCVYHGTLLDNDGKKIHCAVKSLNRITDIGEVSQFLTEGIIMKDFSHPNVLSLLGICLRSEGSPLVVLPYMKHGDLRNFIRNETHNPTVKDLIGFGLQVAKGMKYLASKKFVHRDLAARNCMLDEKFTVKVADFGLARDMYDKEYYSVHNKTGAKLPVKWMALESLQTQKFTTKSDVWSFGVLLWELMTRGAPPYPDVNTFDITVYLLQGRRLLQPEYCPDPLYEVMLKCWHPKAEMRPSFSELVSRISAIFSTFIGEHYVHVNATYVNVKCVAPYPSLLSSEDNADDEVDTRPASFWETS
# experiment.summary: HGFR continuous-coupled spectrophotometric assay
# Assay type: biochemical
recorded.metric: % inhibition

> print(dat)
                         compound.structure      readout.value
1  Nc1ncc(-c2ccc(C(=O)N3CCC(N4CCCC4)CC3)cc2)cc1OCc1ccc(C(=O)N2CCN(Cc3ccccc3)CC2)cc1  % inhibition = 12
2  Cc1onc(-c2ccccc2)c1COc1cc(-c2ccc(C(=O)N3CCC(N4CCCC4)CC3)cc2)cnc1N  % inhibition = 19
3  Nc1ncc(-c2ccc(C(=O)N3CCC(N4CCCC4)CC3)cc2)cc1OCc1cccc(C(=O)NCCc2ccccn2)c1  % inhibition = 12
4  Cc1nc2ccc(COc3cc(-c4ccc(C(=O)N5CCC(N6CCCC6)CC5)cc4)cnc3N)cc2c(=O)[nH]1  % inhibition = 12
5  Nc1ncc(-c2ccc(C(=O)N3CCC(N4CCCC4)CC3)cc2)cc1OCc1ccc(F)c(F)c1F  % inhibition = 19

Alright, here's another compound for you.
# input Looking for the measured % inhibition of `Nc1ncc(-c2ccc(C(=O)N3CCC(N4CCCC4)CC3)cc2)cc1OCc1cc(F)c(F)cc1F` , can you help?
# output % inhibition = 12

* * *

# target.system: HGFR (Homo sapiens)
# Construct: purchased Upstate 14-526
# experiment.summary: HGFR continuous-coupled spectrophotometric assay
# Assay type: biochemical
# condition.label: Table 6; percent c-MET inhibition at 1 μM; read-out: % inhibition
recorded.metric: inhibition at 1 µM
The reply should consist of the numeric value with the unit placed after it.

> print(dat)
                                   compound        target.system  readout.value
1  COCCN1CCN(C(=O)c2cnc(N)c(OCc3c(Cl)cccc3Cl)c2)CC1  HGFR (Homo sapiens)            27%

Value sought for every listed compound: inhibition at 1 µM.
1. CCN(CC)C(=O)C1CCCN(C(=O)c2cnc(N)c(OCc3c(Cl)cccc3Cl)c2)C1 (stereo not shown)
2. Nc1ncc(C(=O)N2CCCC(C(=O)N3CCCC3)C2)cc1OCc1c(Cl)cccc1Cl (stereo not shown)
3. Nc1ncc(C(=O)N2CCNC(=O)C2)cc1OCc1c(Cl)cccc1Cl
4. CN1CCN(C(=O)c2cnc(N)c(OCc3c(Cl)cccc3Cl)c2)CC1

# output
1. 33%
2. 47%
3. 22%
4. 32%

* * *

# target.system: HGFR (Homo sapiens)
# Construct: purchased Upstate 14-526
# experiment.summary: HGFR continuous-coupled spectrophotometric assay
# Type: biochemical
# condition.label: Table 6; percent c-MET inhibition at 1 μM; read-out: % inhibition
recorded.metric: inhibition at 1 µM

In the examples that follow, each entry is paired with its recorded inhibition at 1 µM.
> print(dat)
                                   molecule     recorded.metric  readout.value
1  Nc1ncc(C(=O)N2CCN(CCO)CC2)cc1OCc1c(Cl)cccc1Cl  inhibition at 1 µM            51%
2  CC(C)CC(NC(=O)c1cnc(N)c(OCc2c(Cl)cccc2Cl)c1)C(N)=O (centres unmarked)  inhibition at 1 µM            40%
3  CN(CC#N)C(=O)c1cnc(N)c(OCc2c(Cl)cccc2Cl)c1  inhibition at 1 µM            30%
4  Nc1ncc(C(=O)N2CCC(O)CC2)cc1OCc1c(Cl)cccc1Cl  inhibition at 1 µM            35%
5  Nc1ncc(C(=O)N[C@@H]2c3ccccc3C[C@@H]2O)cc1OCc1c(Cl)cccc1Cl  inhibition at 1 µM            23%

Value sought for every listed molecule: inhibition at 1 µM.
1. CN(CCc1ccccn1)CC1(O)CCN(C(=O)c2cnc(N)c(OCc3c(Cl)cccc3Cl)c2)C1 (centres unmarked)
2. CN(C)c1ccc(CNC(=O)c2cnc(N)c(OCc3c(Cl)cccc3Cl)c2)cc1

# output
18%
30%

# input Looking for the measured inhibition at 1 µM of Nc1ncc(C(=O)N2CCCC(N3CCOCC3)CC2)cc1OCc1c(Cl)cccc1Cl (centres unmarked) , can you help?
# output 18%
